Target: RAC-alpha serine/threonine-protein kinase (Homo sapiens, UniProt P31749)
Sequence (P31749 whole entry): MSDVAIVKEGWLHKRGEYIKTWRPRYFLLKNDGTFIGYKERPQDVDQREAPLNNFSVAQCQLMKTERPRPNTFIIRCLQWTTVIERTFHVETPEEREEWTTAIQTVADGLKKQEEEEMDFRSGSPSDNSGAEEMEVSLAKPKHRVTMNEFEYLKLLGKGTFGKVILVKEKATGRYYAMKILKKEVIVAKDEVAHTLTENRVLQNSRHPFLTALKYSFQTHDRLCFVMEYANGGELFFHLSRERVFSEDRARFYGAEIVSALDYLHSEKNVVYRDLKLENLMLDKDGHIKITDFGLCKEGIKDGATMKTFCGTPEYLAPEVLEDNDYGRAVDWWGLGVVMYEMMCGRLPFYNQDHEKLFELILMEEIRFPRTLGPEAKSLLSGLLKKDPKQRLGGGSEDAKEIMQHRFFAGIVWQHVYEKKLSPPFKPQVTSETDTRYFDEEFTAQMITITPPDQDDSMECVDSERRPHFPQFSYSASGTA
Assay: Inhibition of Akt using RPRTSSF peptide and [gamma32]ATP at 5 uM by cell-free radioactive assay relative to control
Activity calls are given as the source filed them. No cut-off for these calls is given here. *1 amine or outer side, *2 acyl side, *3 side chain or, on linkers, in order; H or OH if unused. Where a SMILES comes first, the peptide text is derived from it. Bridges are numbered along the chain shown (N, C = ends). [ ]: non-standard residue; d: D form. N(6-aminohexyl)Gly = O=C(CN(CCCCCCN[*:3])[*:1])[*:2]; NGly(3-aminopropyl) = O=C(CN(CCCN[*:3])[*:1])[*:2]; N(2-Aminoethyl)Gly = O=C(CN(CCN[*:3])[*:1])[*:2]; hLeu = CC(C)CC[C@H](N)C(=O)O; Nva = CCC[C@H](N)C(=O)O; Dap = NC[C@H](N)C(=O)O; CO = O=C([*:1])[*:2]; Nlys = NCCCCNCC(=O)O
measurement-kind: inhibition

>>> reading("CCC[C@@H]1NC(=O)[C@H](CCCNC(=N)N)NC(=O)CN(C(=O)[C@@H](N)CCCNC(=N)N)CCCNC(=O)NCCCCCCN(CC(N)=O)C(=O)[C@H](CCC(C)C)NC(=O)[C@H](CN)NC(=O)[C@H](Cc2ccc(O)cc2)NC1=O (H-R[NGly(3-aminopropyl)]R[Nva]Y[Dap][hLeu][N(6-aminohexyl)Gly]-NH2; linker 2-8 via CO)")
"100%"
>>> reading("CCC[C@H](NC(=O)[C@H](CCCNC(=N)N)NC(=O)[C@H]1CCCN1C(=O)[C@@H](N)CCCNC(=N)N)C(=O)N[C@@H](Cc1ccc(O)cc1)C(=O)N[C@@H](CN)C(=O)N[C@@H](CCC(C)C)C(N)=O")
"inactive"
>>> reading("CCC[C@@H]1NC(=O)[C@H](CCCNC(=N)N)NC(=O)CN(C(=O)[C@@H](N)CCCNC(=N)N)CCCNC(=O)NCCN(CC(N)=O)C(=O)[C@H](CCC(C)C)NC(=O)[C@H](CN)NC(=O)[C@H](Cc2ccc(O)cc2)NC1=O (H-R[NGly(3-aminopropyl)]R[Nva]Y[Dap][hLeu][N(2-Aminoethyl)Gly]-NH2; linker 2-8 via CO)")
"54%"
>>> reading("CCC[C@H](NC(=O)[C@H](CCCNC(=N)N)NC(=O)[C@H](CC(=O)O)NC(=O)[C@@H](N)CCCNC(=N)N)C(=O)N[C@@H](Cc1ccc(O)cc1)C(=O)N[C@@H](CN)C(=O)N[C@@H](CCC(C)C)C(N)=O")
"68%"
>>> reading("CCC[C@@H]1NC(=O)[C@H](CCCNC(=N)N)NC(=O)CN(C(=O)[C@@H](N)CCCNC(=N)N)CCCCNC(=O)NCCCCCCN(CC(N)=O)C(=O)[C@H](CCC(C)C)NC(=O)[C@H](CN)NC(=O)[C@H](Cc2ccc(O)cc2)NC1=O (H-R[Nlys]R[Nva]Y[Dap][hLeu][N(6-aminohexyl)Gly]-NH2; linker 2-8 via CO)")
"94%"

Which measured inhibition value corresponds to `CCC[C@H](NC(=O)[C@H](CCCNC(=N)N)NC(=O)[C@@H](CC(=O)O)NC(=O)[C@@H](N)CCCNC(=N)N)C(=O)N[C@@H](Cc1ccc(O)cc1)C(=O)N[C@@H](CN)C(=O)N[C@@H](CCC(C)C)C(N)=O` ?
inactive

Another molecule: CCC[C@@H]1NC(=O)[C@H](CCCNC(=N)N)NC(=O)CN(C(=O)[C@@H](N)CCCNC(=N)N)CCCCNC(=O)NCCCCN(CC(N)=O)C(=O)[C@H](CCC(C)C)NC(=O)[C@H](CN)NC(=O)[C@H](Cc2ccc(O)cc2)NC1=O (H-R[Nlys]R[Nva]Y[Dap][hLeu][Nlys]-NH2; linker 2-8 via CO)
100%
